Below, each entry is listed alongside its reported chromatographic logP.
- Assay Notes: log P by HPLC on reversed-phase C18 columns (OECD Guideline 117)
- Format: physicochemical
- Experimental Context: reversed-phase C18 HPLC column, pH 2.7, HPLC RP C18, acidic range pH 2.7, 0.1% aqueous formic acid/acetonitrile; read-out: logP[a]

{"Given Smiles": "CC(C)NC(=O)c1cn(-c2cccnc2)nc1N", "chromatographic logP": 0.82}
{"Given Smiles": "CCOC(=O)c1cn(-c2cncnc2)nc1N", "chromatographic logP": 1.12}
{"Given Smiles": "CCOC(=O)c1cnn(-c2cncnc2)c1N", "chromatographic logP": 1.16}
{"Given Smiles": "CNC(=O)c1cnn(-c2cncnc2)c1N", "chromatographic logP": 0.18}
{"Given Smiles": "CC(C)NC(=O)c1cn(-c2ccnnc2)nc1N", "chromatographic logP": 0.74}
{"Given Smiles": "CCOC(=O)c1cnn(-c2ccnnc2)c1N", "chromatographic logP": 1.12}

* * *

- Assay Notes: log P by HPLC on reversed-phase C18 columns (OECD Guideline 117)
- Format: physicochemical
- Experimental Context: pH 2.7
logP[a] strictly less than 1 = yes (1). Otherwise no (0).

{"Given Smiles": "O=c1c2cnn(-c3cccnc3)c2ncn1CC(F)(F)F", "Assigned Class": "no (0)"}
{"Given Smiles": "O=c1c2cnn(-c3cccnc3)c2ncn1Cc1ncccn1", "Assigned Class": "yes (1)"}
{"Given Smiles": "Cn1cnc2c(cnn2-c2cccnc2)c1=O", "Assigned Class": "yes (1)"}
{"Given Smiles": "CC(C)n1cnc2nn(-c3cncnc3)cc2c1=O", "Assigned Class": "yes (1)"}
{"Given Smiles": "CC(C)n1cnc2c(cnn2-c2cccnc2)c1=O", "Assigned Class": "no (0)"}

* * *

- Assay Notes: log P by HPLC on reversed-phase C18 columns (OECD Guideline 117)
- Type: physicochemical
- Experimental Context: HPLC RP C18, neutral range pH 7.8, 0.001 molar aqueous ammonium hydrogencarbonate/acetonitrile
logP[b] strictly less than 1 = yes. Otherwise no.

{"Compound": "CSCC(C)n1cnc2nn(-c3cccnc3)cc2c1=O (centres unmarked)", "Assigned Class": "no"}
{"Compound": "Cc1ccc(-n2cnc3nn(-c4cccnc4)cc3c2=O)cc1", "Assigned Class": "no"}
{"Compound": "O=c1c2cn(-c3cccnc3)nc2ncn1CC1CCCO1 (centres unmarked)", "Assigned Class": "no"}
{"Compound": "O=c1c2cn(-c3cccnc3)nc2ncn1C1CC1", "Assigned Class": "yes"}
{"Compound": "O=c1c2cn(-c3cccnc3)nc2ncn1CC(F)F", "Assigned Class": "yes"}

* * *

- Assay Notes: log P by HPLC on reversed-phase C18 columns (OECD Guideline 117)
- Assay type: physicochemical
- Experimental Context: HPLC RP C18, neutral range pH 7.8, 0.001 molar aqueous ammonium hydrogencarbonate/acetonitrile
logP[b] strictly less than 1 = t. Otherwise f.

{"Molecule": "N#CC1(n2cnc3nn(-c4cccnc4)cc3c2=O)CC1 [compound 30]", "Assigned Class": "t"}
{"Molecule": "CC(C)(C)Cn1cnc2nn(-c3cccnc3)cc2c1=O [compound 34]", "Assigned Class": "f"}
{"Molecule": "CC(F)(F)Cn1cnc2nn(-c3cccnc3)cc2c1=O [compound 24]", "Assigned Class": "f"}
{"Molecule": "CCOC(=O)Cn1cnc2nn(-c3cccnc3)cc2c1=O [compound 19]", "Assigned Class": "f"}
{"Molecule": "Cc1nc2nn(-c3cccnc3)cc2c(=O)n1C(C)C [compound 28]", "Assigned Class": "f"}
{"Molecule": "CC(c1ccccn1)n1cnc2nn(-c3cccnc3)cc2c1=O (stereo not shown) [compound 21]", "Assigned Class": "f"}
{"Molecule": "CN(C)C(=O)Cn1cnc2nn(-c3cccnc3)cc2c1=O [compound 22]", "Assigned Class": "t"}
{"Molecule": "Cn1cnc2nn(-c3cccnc3)cc2c1=O [compound 18]", "Assigned Class": "t"}
{"Molecule": "CSCCn1cnc2nn(-c3cccnc3)cc2c1=O [compound 27]", "Assigned Class": "f"}
{"Molecule": "O=c1c2cn(-c3cccnc3)nc2ncn1CC1CC1 [compound 33]", "Assigned Class": "f"}

* * *

- Assay Notes: log P by HPLC on reversed-phase C18 columns (OECD Guideline 117)
- Type: physicochemical
- Experimental Context: HPLC RP C18, acidic range pH 2.7, 0.1% aqueous formic acid/acetonitrile

{"Compound": "CC(F)(F)Cn1cnc2nn(-c3cccnc3)cc2c1=O [compound 24]", "logP[a]": 1.19}
{"Compound": "O=c1c2cnn(-c3cccnc3)c2ncn1-c1ccc(Cl)cc1 [compound 4]", "logP[a]": 2.04}
{"Compound": "O=c1c2cn(-c3cccnc3)nc2ncn1-c1ccccc1 [compound 10]", "logP[a]": 1.40}
{"Compound": "CCOC(=O)c1cnn(-c2cccnc2)c1N [IIIa-1]", "logP[a]": 1.10}
{"Compound": "O=c1c2cn(-c3cccnc3)nc2ncn1C1CC1 [compound 23]", "logP[a]": 0.79}
{"Compound": "CSCCn1cnc2nn(-c3cccnc3)cc2c1=O [compound 27]", "logP[a]": 1.13}
{"Compound": "Cc1ccc(-n2cnc3nn(-c4cccnc4)cc3c2=O)cc1 [compound 39]", "logP[a]": 1.73}
{"Compound": "CCn1cnc2nn(-c3cccnc3)cc2c1=O [compound 9]", "logP[a]": 0.80}
{"Compound": "CCOC(=O)Cn1cnc2nn(-c3cccnc3)cc2c1=O [compound 19]", "logP[a]": 0.98}
{"Compound": "N#CC1(n2cnc3nn(-c4cccnc4)cc3c2=O)CC1 [compound 30]", "logP[a]": 0.82}
{"Compound": "CC(C)(C)Cn1cnc2nn(-c3cccnc3)cc2c1=O [compound 34]", "logP[a]": 1.70}
{"Compound": "O=c1c2cn(-c3cccnc3)nc2ncn1-c1ccc(Cl)cc1 [compound 14]", "logP[a]": 1.74}
{"Compound": "CSCC(C)n1cnc2nn(-c3cccnc3)cc2c1=O (centres unmarked) [compound 31]", "logP[a]": 1.36}
{"Compound": "Cn1cnc2nn(-c3cccnc3)cc2c1=O [compound 18]", "logP[a]": 0.45}
{"Compound": "CN(C)C(=O)Cn1cnc2nn(-c3cccnc3)cc2c1=O [compound 22]", "logP[a]": 0.47}
{"Compound": "O=c1c2cn(-c3cccnc3)nc2ncn1CC1CC1 [compound 33]", "logP[a]": 1.23}
{"Compound": "O=c1c2cnn(-c3cccnc3)c2ncn1-c1ccccc1 [compound 2]", "logP[a]": 1.57}
{"Compound": "O=c1c2cn(-c3ccccc3)nc2ncn1Cc1ncccn1 [compound 11]", "logP[a]": 0.63}
{"Compound": "CC(c1ccccn1)n1cnc2nn(-c3cccnc3)cc2c1=O (centres unmarked) [compound 21]", "logP[a]": 1.13}
{"Compound": "O=c1c2cn(-c3cccnc3)nc2ncn1CC(F)(F)F [compound 12]", "logP[a]": 1.27}
{"Compound": "O=c1c2cn(-c3cccnc3)nc2ncn1CC(F)F [compound 25]", "logP[a]": 0.91}
{"Compound": "O=c1c2cn(-c3cccnc3)nc2ncn1CC1CCCO1 (centres unmarked) [compound 17]", "logP[a]": 1.07}
{"Compound": "Cc1nc2nn(-c3cccnc3)cc2c(=O)n1C(C)C [compound 28]", "logP[a]": 1.28}

* * *

- Assay Notes: log P by HPLC on reversed-phase C18 columns (OECD Guideline 117)
- Type: physicochemical
- Experimental Context: reversed-phase C18 HPLC column, pH 2.7, HPLC RP C18, acidic range pH 2.7, 0.1% aqueous formic acid/acetonitrile; read-out: logP[a]
Assign y whenever chromatographic logP does not fall below 1; assign n whenever it does.

{"Compound": "CCNC(=O)c1cn(-c2cccnc2)nc1N", "Assigned Class": "n"}
{"Compound": "CCn1c(C)nc2nn(-c3cccnc3)cc2c1=O", "Assigned Class": "n"}
{"Compound": "C(=NNc1cccnc1)c1ccccc1 [VII-1, Benzaldehyde pyridin-3-yl hydrazone]", "Assigned Class": "n"}
{"Compound": "CC(C)n1nnc2nn(-c3cccnc3)cc2c1=O", "Assigned Class": "y"}
{"Compound": "CC(C)n1cnc2nn(-c3cccnc3)cc2c1=O", "Assigned Class": "y"}
{"Compound": "CCNC(=O)c1cnn(-c2cccnc2)c1N", "Assigned Class": "n"}
{"Compound": "CCn1cnc2nn(-c3cccnc3)cc2c1=O", "Assigned Class": "n"}
{"Compound": "CC(C)n1cnc2nn(-c3ccnnc3)cc2c1=O", "Assigned Class": "n"}
{"Compound": "CCOC(=O)c1cnn(-c2cccnc2)c1N", "Assigned Class": "y"}
{"Compound": "CCOC(=O)c1cn(-c2cccnc2)nc1N", "Assigned Class": "y"}

* * *

Below, each entry is listed alongside its reported chromatographic logP.
- Assay Notes: log P by HPLC on reversed-phase C18 columns (OECD Guideline 117)
- Format: physicochemical
- Experimental Context: reversed-phase C18 HPLC column, pH 2.7, HPLC RP C18, acidic range pH 2.7, 0.1% aqueous formic acid/acetonitrile; read-out: logP[a]
Readout: chromatographic logP

{"Given Smiles": "Cn1cnc2c(cnn2-c2cncnc2)c1=O", "Readout": "chromatographic logP", "Test Value": 0.55}
{"Given Smiles": "CCn1c(C(F)(F)F)nc2nn(-c3cccnc3)cc2c1=O", "Readout": "chromatographic logP", "Test Value": 2.07}
{"Given Smiles": "CCOC(=O)C(C#N)=CN(N=Cc1ccccc1)c1cccnc1", "Readout": "chromatographic logP", "Test Value": 2.54}
{"Given Smiles": "CCOC(=O)c1cn(-c2ccnnc2)nc1N", "Readout": "chromatographic logP", "Test Value": 0.9}
